# ASSAYED_SYSTEM: UniProt Q5TCY1
# Sequence (Q5TCY1 whole entry, looked up): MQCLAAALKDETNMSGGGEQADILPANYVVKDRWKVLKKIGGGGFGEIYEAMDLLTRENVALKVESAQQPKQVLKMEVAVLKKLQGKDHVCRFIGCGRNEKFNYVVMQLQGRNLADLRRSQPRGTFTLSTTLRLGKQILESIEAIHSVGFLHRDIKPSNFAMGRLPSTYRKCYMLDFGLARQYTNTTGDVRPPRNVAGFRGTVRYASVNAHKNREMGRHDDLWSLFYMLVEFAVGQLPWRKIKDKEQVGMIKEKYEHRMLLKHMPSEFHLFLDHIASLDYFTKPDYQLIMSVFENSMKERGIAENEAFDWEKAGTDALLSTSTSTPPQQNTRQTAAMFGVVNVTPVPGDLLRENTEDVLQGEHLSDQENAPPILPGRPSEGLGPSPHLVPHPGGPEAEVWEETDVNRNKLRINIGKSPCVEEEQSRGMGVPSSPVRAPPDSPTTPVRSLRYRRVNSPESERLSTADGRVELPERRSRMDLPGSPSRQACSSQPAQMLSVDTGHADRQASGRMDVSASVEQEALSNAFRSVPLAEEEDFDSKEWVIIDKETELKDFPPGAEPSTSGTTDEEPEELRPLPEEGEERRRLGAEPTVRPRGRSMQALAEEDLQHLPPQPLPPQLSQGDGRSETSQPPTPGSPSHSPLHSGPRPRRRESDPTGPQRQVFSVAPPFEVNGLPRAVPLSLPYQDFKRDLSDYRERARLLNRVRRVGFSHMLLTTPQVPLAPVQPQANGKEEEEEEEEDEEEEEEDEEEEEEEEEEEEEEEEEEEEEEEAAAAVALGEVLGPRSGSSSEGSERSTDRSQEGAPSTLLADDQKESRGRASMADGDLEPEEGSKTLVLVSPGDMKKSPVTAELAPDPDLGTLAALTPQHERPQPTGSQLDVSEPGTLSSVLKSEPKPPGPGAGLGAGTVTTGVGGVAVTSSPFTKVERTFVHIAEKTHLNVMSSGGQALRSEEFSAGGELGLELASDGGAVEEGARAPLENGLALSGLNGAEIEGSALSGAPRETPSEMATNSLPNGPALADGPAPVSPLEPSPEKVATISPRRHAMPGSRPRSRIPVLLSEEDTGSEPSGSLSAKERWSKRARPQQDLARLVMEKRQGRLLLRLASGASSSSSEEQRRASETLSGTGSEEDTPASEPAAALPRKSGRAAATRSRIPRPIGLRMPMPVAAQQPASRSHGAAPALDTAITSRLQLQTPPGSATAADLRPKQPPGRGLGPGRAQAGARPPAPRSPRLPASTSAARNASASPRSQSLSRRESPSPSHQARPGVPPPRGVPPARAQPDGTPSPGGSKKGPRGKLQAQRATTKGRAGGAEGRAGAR
# EXPERIMENT: radiometric filter-binding kinase assay
# RUN_CONDITIONS: compound 0.1 µM
Known residual activity of a selection of compounds
Answer with a number only, understood to be in %.

Answered examples (2):
Cc1cc(NC(=O)c2cccc(NC(=O)/C=C/CN(C)C)c2)ccc1Nc1nccc(-c2cccnc2)n1 = 92
CCn1c(-c2nonc2N)nc2cncc(CNC3CCNCC3)c21 = 104

Identify measured residual activity corresponding to `O=C(N[C@@H](COc1ccc2[nH]c(=O)[nH]c2c1)c1ccccc1)c1cccn(Cc2ccc(F)c(F)c2)c1=O`
101

----------
# ASSAYED_SYSTEM: DYRK1A (human)
# EXPERIMENT: radiometric filter-binding kinase assay
# RUN_CONDITIONS: compound 1.0 µM
Below, each entry is listed with its recorded residual activity.
Give the value in % but do not write % after it.

Examples with answers:
Cc1cccc(Nc2nn(C)c3ncnc(N)c23)c1 = 90
COc1ccc2c(c1)c1c3c(c4c5ccccc5n(C)c4c1n2CC(O)CN(C)C)C(=O)NC3=O (stereo not drawn) = 68
O=C(Nc1nc2cc(C(F)(F)F)cc(NC3CC3)n2n1)c1cccnc1 = 81
NS(=O)(=O)OC[C@@H]1C[C@@H](n2ccc3c(N[C@H]4CCc5ccccc54)ncnc32)C[C@@H]1O = 96
Oc1ccc(/C=C/c2cc(O)cc(O)c2)cc1 = 94
CCCCCc1ccc(/C=C/[C@H](O)[C@@H](CO)NC)cc1 = 91

Quote residual activity reported for `COc1ccc(N(C(=O)Nc2c(C)cccc2C)c2cc(Nc3ccc(N4CCN(C)CC4)cc3)ncn2)c(OC)c1` please.
93

Entry `O=C(Nc1ccccc1-c1cn2c(CN3CCNCC3)csc2n1)c1cnc2ccccc2n1` needs its residual activity filled in; supply it.
94
